test system: LG0703-F948-PDC complex spheroid viability; experiment: Anticancer human tumor LG0703-F948-PDC patient-derived lung adenocarcinoma cell line growth inhibition [RAS]; conditions: second compound 0.000949 µM; first compound 0.0316 µM; stronger effect = lower value;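 also: spheroids exposed to agents for 7 days; 100% = DMSO vehicle wells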
PARAMETER: viability, T/C (%)
Number only, in %; omit the unit.

# get_value(readout= viability, T/C, system= LG0703-F948-PDC complex spheroid viability) for CC(C)NCC(C(=O)N1CCN(c2ncnc3c2C(C)CC3O)CC1)c1ccc(Cl)cc1 (stereo not given) + CCn1c(-c2cccnc2C(C)OC)c2c3cc(ccc31)N1CCOC(CC(NC(=O)C(C(C)C)N(C)C(=O)C3(F)CCN(C(=O)C#CC(C)(C)N(C)C)CC3)C(=O)N3CCCC(N3)C(=O)OCC(C)(C)C2)C1;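 also: spheroids exposed to agents for 7 days; 100% = DMSO vehicle wells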
103
